As shown below, each of these compounds has a reported viability at 10 µM value.
- Test system: A-375
- experiment-description: Cytotoxicity in human A375 cells assessed as cell viability at 10 uM incubated for 48 hrs by MTT assay
- Format: functional
- test-conditions: A-375, 48 h, read-out: Activity
Note to self: number, then unit, no commentary.

molecule-smiles | viability at 10 µM
O=C(COC(=O)Cc1ccccc1Cl)NCc1cnc2scc(-c3ccc(Br)cc3)n12 | 100%
CC(=O)N(C)CC(=O)NCc1cnc2scc(-c3ccc(Br)cc3)n12 | 98%
O=C(CNC(=O)Cc1ccccc1)NCc1cnc2scc(-c3ccc(Br)cc3)n12 | 100%
N[C@H](C(=O)NCC(=O)NCc1cnc2scc(-c3ccc(Br)cc3)n12)c1ccc(O)cc1 | 100%
O=C(COC(=O)Cc1cccc([N+](=O)[O-])c1)NCc1cnc2scc(-c3ccc(Br)cc3)n12 | 100%

Query: What value of viability at 10 µM has been recorded for this entry: O=C(COC(=O)Cc1ccc(O)cc1)NCc1cnc2scc(-c3ccc(Br)cc3)n12
Reply: 100%

Query: Queued: O=C(COC(=O)Cc1cccc(O)c1)NCc1cnc2scc(-c3ccc(Br)cc3)n12
Reply: 100%

Query: Queued: CN(CC(=O)NCc1cnc2scc(-c3ccc(Br)cc3)n12)C(=O)Cc1cccc(O)c1
Reply: 100%

Query: Queued: O=C(COC(=O)Cc1ccc([N+](=O)[O-])cc1)NCc1cnc2scc(-c3ccc(Br)cc3)n12
Reply: 100%

Query: Queued: CN(CC(=O)NCc1cnc2scc(-c3ccc(Br)cc3)n12)C(=O)Cc1cccc(C#N)c1
Reply: 90%

Query: Queued: CN(CC(=O)NCc1cnc2scc(-c3ccc(Br)cc3)n12)C(=O)c1ccc(C#N)cc1
Reply: 87%

Query: Queued: N[C@H](C(=O)NCC(=O)NCc1cnc2scc(-c3ccc(Br)cc3)n12)c1ccccc1
Reply: 96%

Query: Queued: CN(CC(=O)NCc1cnc2scc(-c3ccc(Br)cc3)n12)C(=O)Cc1ccc([N+](=O)[O-])cc1
Reply: 100%

Query: Queued: CN(CC(=O)NCc1cnc2scc(-c3ccc(Br)cc3)n12)C(=O)Cc1ccccc1Cl
Reply: 71%

Query: Queued: CN(CC(=O)NCc1cnc2scc(-c3ccc(Br)cc3)n12)C(=O)c1ccc([N+](=O)[O-])cc1
Reply: 100%

Query: Queued: O=C(COC(=O)Cc1ccc(O)c(O)c1)NCc1cnc2scc(-c3ccc(Br)cc3)n12
Reply: 99%

Query: Queued: O=C(COC(=O)Cc1cccc(Cl)c1)NCc1cnc2scc(-c3ccc(Br)cc3)n12
Reply: 100%

Query: Queued: N#Cc1cccc(CC(=O)OCC(=O)NCc2cnc3scc(-c4ccc(Br)cc4)n23)c1
Reply: 97%

Query: Queued: CN(CC(=O)NCc1cnc2scc(-c3ccc(Br)cc3)n12)C(=O)Cc1ccc(O)c(O)c1
Reply: 99%
